Attribution: PubChem BioAssay (Tox21)

# measured-on: D(2) dopamine receptor (Homo sapiens) (UniProt P14416)
# Sequence (P14416 whole entry, looked up): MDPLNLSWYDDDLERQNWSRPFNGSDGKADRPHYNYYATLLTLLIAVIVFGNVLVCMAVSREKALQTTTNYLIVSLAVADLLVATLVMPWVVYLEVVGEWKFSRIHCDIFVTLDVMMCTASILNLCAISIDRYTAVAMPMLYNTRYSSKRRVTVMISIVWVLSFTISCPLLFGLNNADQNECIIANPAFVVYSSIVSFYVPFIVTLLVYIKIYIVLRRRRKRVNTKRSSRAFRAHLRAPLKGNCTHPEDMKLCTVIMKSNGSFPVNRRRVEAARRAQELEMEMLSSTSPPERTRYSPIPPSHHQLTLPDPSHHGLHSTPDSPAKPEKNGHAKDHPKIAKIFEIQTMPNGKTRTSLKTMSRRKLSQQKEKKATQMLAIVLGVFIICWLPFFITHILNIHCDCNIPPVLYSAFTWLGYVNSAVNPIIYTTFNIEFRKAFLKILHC
# test: Dopamine D2 receptor (DRD2) small molecule agonists, cell-based qHTS assay (AID 1963594); further: on the % scale 0 is the no-effect control and ±100 the full control effect; nearly all actives have a fitted effect of over 35% in size
# experimental-context: HEK293-DRD2 cAMP HTRF, agonist mode, 30 min; series mostly up to 92.4 µM
Records with an inconclusive call do not appear. Calls of active or inactive are those of the source. The call rests on the fitted dose curve.
measured-attribute: activation

CCC(C)CO (stereo not drawn)
inactive
O=C1CCCCCCCCCCCCCCCO1
inactive
CCN(CCO)c1cccc(C)c1
inactive
Cc1oncc1C(=O)Nc1ccc(C(F)(F)F)cc1
inactive
Cn1cc(S(C)=O)c(=O)c2ccc(F)cc21 (stereo not drawn)
inactive

Incoming: For the compound C=C[Si](OC(=C)C)(OC(=C)C)OC(=C)C , what activation is on record?
Outgoing: inactive

Incoming: Entry CCCCCCCCCCCCC(=O)O : reported activation = ?
Outgoing: inactive

Incoming: Requested field: activation. Item: N=C(N=C(N)N)N1CCOCC1
Outgoing: inactive

----------
# test: Nuclear factor erythroid 2-related factor 2/antioxidant responsive element (Nrf2/ARE) small molecule agonists: luciferase reporter gene qHTS assay in human keratinocytes (AID 1919969); further: nearly all actives have a fitted effect of over 35% in size
# experimental-context: KeratinoSens HaCaT ARE-luciferase, luminescence, 24 h; series mostly up to 92.4 µM
Records with an inconclusive call do not appear. Active and inactive are the calls of the source. Calls come from the whole dose curve.
Can you answer with just one of these options? Yes (active), No (inactive)

Would you please look over these solved cases?
CC(=O)NCCO
No
C1C[C@@H]2[C@H]3CC[C@H](C3)[C@@H]2C1
No
CCC(=O)OC(C)(C)C1CC=C(C)CC1 (stereo not given)
No
CC(C)CCCCCOC(=O)CS
No
C#CC(O)CCC (stereo not given)
No

Incoming: Query: recorded result category for OCC1(CO)COCOC1 in this test
Outgoing: No

Incoming: Per the assay record, what outcome was assigned to CCCOCCOCCO ?
Outgoing: No

Incoming: Call for entry Nc1nc(N)c2nc(-c3ccccc3)c(N)nc2n1 :
Outgoing: No

----------
# test: p53 small molecule agonists, cell-based qHTS assay with rat liver microsomes: qHTS cell viability counter screen (AID 1963580); further: on the % scale 0 is the no-effect control and ±100 the full control effect; nearly all actives have a fitted effect of over 45% in size
# experimental-context: p53RE-bla HCT-116 + rat microsomes, ATP viability, 16 h; series mostly up to 66 µM
# Text: National Center for Advancing Translational Sciences [NCATS] Division of Preclinical Innovation [DPI] U.S. Environmental Protection Agency [EPA] National Institutes of Environmental Health Sciences [NIEHS] National Toxicology Program [NTP] U.S. Food and Drug Administration [FDA] p53, a tumor suppressor protein, is activated following cellular insult, including DNA damage and other cellular stresses. […] The activation of the reporter gene under culture conditions can be detected by fluorescence intensity. […]
Records with an inconclusive call do not appear. Calls of active or inactive are those of the source. Calls follow the shape of the full dose curve.
measured-attribute: activity change, negative = cytotoxicity

NC(=S)Nc1cccc2ccccc12
8.96% [at 5.99 µM] (inactive)
Clc1ccc2c(c1)C(N1CCNCC1)=Nc1ccccc1O2
inactive
CC1(C)Oc2ccc(C#N)cc2[C@@H](N2CCCC2=O)[C@@H]1O
inactive
C[C@]12CC[C@H]3[C@@H](CCC4=CC(=O)CC[C@@]43C)[C@@H]1CC[C@@H]2C(=O)CO
inactive

----------
# test: Nuclear factor erythroid 2-related factor 2/antioxidant responsive element (Nrf2/ARE) small molecule agonists: luciferase reporter gene qHTS assay in human keratinocytes (AID 1919969); further: nearly all actives have a fitted effect of over 35% in size
# experimental-context: KeratinoSens HaCaT ARE-luciferase, luminescence, 24 h; series mostly up to 92.4 µM
Results filed as inconclusive are left out. Activity calls are given as the source filed them. Calls come from the whole dose curve.
Choose the fitting class; nothing outside 1.0 (active), 0.0 (inactive) is accepted.

Worked cases, answers included:
[Cl][Dy]([Cl])[Cl]
0.0
CCC(=O)OC/C=C(\C)CCC=C(C)C
0.0

Incoming: How did this test come out for NS(=O)(=O)c1ccccc1Cl ?
Outgoing: 0.0

Incoming: What did the test return for CCCCOC(=O)C(=O)OCCCC ?
Outgoing: 0.0

Incoming: GET /call?item= CCOC(=O)CN returns the recorded outcome of this test.
Outgoing: 0.0

Incoming: Field: outcome | Entry: CCCCCCCCOC(=O)CCCCCCCCC(=O)OCCCCCCCC
Outgoing: 0.0

Incoming: // outcome(item) with item = Cc1ccccc1S(N)(=O)=O
Outgoing: 0.0

Incoming: Per the records of this test, what outcome belongs to CCC(COC(=O)CCS)(COC(=O)CCS)COC(=O)CCS ?
Outgoing: 0.0

Incoming: # lookup: test call for CCCCCOC(C)=O
Outgoing: 1.0

Incoming: For COc1ccc(-c2coc3cc(O)cc(O)c3c2=O)cc1 , which call appears in the assay record?
Outgoing: 0.0

Incoming: Which outcome was assigned to O=C1CCCc2ccccc21 in this test?
Outgoing: 0.0

Incoming: Per the assay record, what outcome was assigned to OCc1c2ccccc2cc2ccccc12 ?
Outgoing: 0.0

Incoming: Assay result, entry Cc1ccc(S(=O)(=O)NC(=O)NC2CCCCCCC2)cc1 — outcome?
Outgoing: 0.0

Incoming: Which outcome was assigned to OCC1CCC(CO)CC1 (centres undefined) in this test?
Outgoing: 0.0

Incoming: Query: recorded result category for CS(C)(=O)=O in this test
Outgoing: 0.0

Incoming: Recorded test call requested for CC1=NN(c2ccc(S(=O)(=O)O)cc2)C(=O)C1
Outgoing: 0.0

Incoming: Outcome logged for CS(=O)(=O)O in this assay:
Outgoing: 0.0

Incoming: Could you kindly confirm the outcome this assay logged for N#Cc1cc(NC(=O)C(=O)O)c(Cl)c(NC(=O)C(=O)O)c1 ?
Outgoing: 0.0

Incoming: Outcome? Cc1ccc(S(=O)(=O)O)c(C)c1
Outgoing: 0.0

Incoming: Which outcome did this test record for the compound COCC(C)OC(C)=O (centres undefined) ?
Outgoing: 0.0

Incoming: Dear all, I need the recorded test outcome for OC[C@H]1O[C@@H]2O[C@H]3[C@H](O)[C@@H](O)[C@@H](O[C@H]4[C@H](O)[C@@H](O)[C@@H](O[C@H]5[C@H](O)[C@@H](O)[C@@H](O[C@H]6[C@H](O)[C@@H](O)[C@@H](O[C@H]7[C@H](O)[C@@H](O)[C@@H](O[C@H]1[C@H](O)[C@H]2O)O[C@@H]7CO)O[C@@H]6CO)O[C@@H]5CO)O[C@@H]4CO)O[C@@H]3CO , thank you.
Outgoing: 0.0

Incoming: # outcome recorded in this test, key = NNC(=O)c1cccc(C(=O)NN)c1
Outgoing: 0.0
